System: M. avium ATCC 700898 isolate 32-8A
Assay: MIC, EBO selected isolate
Type: cell-based
Conditions: Mycobacterium avium
Reported MIC values are given for each entry in this list.
Field: numeric (µg/mL). Do not append units.

Q. Please tell me the measured MIC for CC(C)/N=c1\cc2n(-c3ccc(Cl)cc3)c3ccccc3nc-2cc1Nc1ccc(Cl)cc1 [CFZ, clofazimine] ; system: M. avium ATCC 700898 isolate 32-8A.
A. 0.25

Q. Please tell me the measured MIC for NCC[C@H](O)C(=O)N[C@@H]1C[C@H](N)[C@@H](O[C@H]2O[C@H](CN)[C@@H](O)[C@H](O)[C@H]2O)[C@H](O)[C@H]1O[C@H]1O[C@H](CO)[C@@H](O)[C@H](N)[C@H]1O [AMK, Amikacin] ; system: M. avium ATCC 700898 isolate 32-8A.
A. 32

Q. Please tell me the measured MIC for COc1nc2ccc(Br)cc2cc1[C@@H](c1ccccc1)[C@@](O)(CCN(C)C)c1cccc2ccccc12 [BDQ, Bedaquiline] ; system: M. avium ATCC 700898 isolate 32-8A.
A. 0.12

Q. Please tell me the measured MIC for CC[C@H]1OC(=O)[C@H](C)[C@@H](O[C@H]2C[C@@](C)(OC)[C@@H](O)[C@H](C)O2)[C@H](C)[C@@H](O[C@@H]2O[C@H](C)C[C@H](N(C)C)[C@H]2O)[C@](C)(OC)C[C@@H](C)C(=O)[C@H](C)[C@@H](O)[C@]1(C)O [CLR, Clarithromycin] ; system: M. avium ATCC 700898 isolate 32-8A.
A. 0.5

Q. Please tell me the measured MIC for CO[C@H]1/C=C/O[C@@]2(C)Oc3c(C)c(O)c4c(c3C2=O)C2=NC3(CCN(CC(C)C)CC3)NC2=C(NC(=O)/C(C)=C\C=C\[C@H](C)[C@H](O)[C@@H](C)[C@@H](O)[C@@H](C)[C@H](OC(C)=O)[C@@H]1C)C4=O [RFB, Rifabutin] ; system: M. avium ATCC 700898 isolate 32-8A.
A. 0.125

Switching to the query record.
Q. Please tell me the measured MIC for CC[C@@H](CO)NCCN[C@@H](CC)CO [EMB, Ethambutol] ; system: M. avium ATCC 700898 isolate 32-8A.
A. 8
